# Test system: MS2 coat protein
# protocol: apparent KD of MS2 coat protein; designed switch direction (-1 OFF switch, 1 ON switch): 1; higher = weaker reporter binding
# run.parameters: Eterna round: R95; input ligand: microRNA oligo, concentration not stated
readout.label: apparent KD of MS2 coat protein

Return reported apparent KD of MS2 coat protein. Input sequence: AAAGGACAUGAGGAUCACCCAUGUAGAAAAUACACAGGAUAUCGUCAUAUCGAAUUAUAAUGAGAAGGGUGCAAAA [Vebeinlala] (puzzle: Same State 1)
273 nM

Give a short answer stating reported apparent KD of MS2 coat protein for GGAGAGAGAGCGGAGGAUAUUCAAGGAGAGACAUGAGGAUCACCCAUGUAAGAGAGAGAGGAGAGGAAGAAGGCUGAGAGAGAGG [Altered State 2-10 - Jieux - Same State 2] (puzzle: Same State 2) .
26.9 nM

Indicate the recorded apparent KD of MS2 coat protein value for this sequence: AGGCAAGCUUUUUGCUGGUAUGAAGGAGAACAUGAGGAUCACCCAUGUAUUAGAGGUGUAGAGGAUUUGAGAAAGAA [JR_SHM208A_Sub003] (puzzle: Sensor for hsa-mir-208a)
91.8 nM

----------
# Test system: MS2 coat protein
# protocol: apparent KD of MS2 coat protein, switch ON state; designed switch direction (-1 OFF switch, 1 ON switch): 1; higher = weaker reporter binding
# run.parameters: FMN input: 0 or 200 uM; Eterna round: R93 (includes R88 designs)
Rule: apparent KD of MS2 coat protein of 30 nM or more gives True; anything lower gives False.

Determine whether this sequence has apparent KD of MS2 coat protein no lower than 30 nM: AUAAAACAUGAGGAUCACCCAUGUAAAAAAGCAUGAGGAUAUAUAAAAAGAAAAAGAAGAAUAGAAGGCAUAGUAA [JR_SS001_Sub1222]
True

Has AGAAAUAAAACACAGGAUAUCCAAAAGAAAACAUGAGGAUCACCCAUGUAAAAUAAAAUAAAAUGGGAGAAGGGUGAAAAUAAGA [Mat - Same State 2 - JL mod - D5] a recorded apparent KD of MS2 coat protein greater than or equal to 30 nM?
True

Is apparent KD of MS2 coat protein at least 30 nM? Consider AUAUGAGCUAUGGAGGAUAUCCAUAACAAGACAUGAGGAUCACCCAUGUAAUCAAAACAAUAAUGGGAGAAGGCCAUAGCUCAAU [SS 2 M47]
True

Please check the record AACAAUCUAUCUGAGGAUAUCAUGUCAAAGACAUGAGGAUCACCCAUGUCUAGGAAAACUAGAUAUGAGAAGGCAGAUAGAUUGA [SS2 :P - 597] and state if its apparent KD of MS2 coat protein is at or above 30 nM.
False

Reported apparent KD of MS2 coat protein at or above 30 nM? AAUACACAUGAGGAUCACCCAUGUAGAAACAAGUCAGGAUAUCCGAUCCACAUGUGAUAAGGAGAAGGGACAAUAA [SS 1 Tesla 7]
False

Does the reported apparent KD of MS2 coat protein for AACAAACAUGAGGAUCACCCAUGUCAAACAAACCAAGGAUAUGGGAAGCGAGACUCGCUACCAGAAGGUGGAAAUU [Edtigebe] fall at or above the 30 nM mark?
True

Record AAUACACAUGGUCAGGAUAUCGCAGCUAGGACAUGAGGAUCACCCAUGUCGUACGUAACCGUAAAUGAGAAGGGACAGGGUGACC [JR_SS002_Sub408] ; criterion: apparent KD of MS2 coat protein no lower than 30 nM. Met?
True

Hi, just wondering whether GUGAAGGAGAGAGAGGAUAUCCAAAGGAAAACAUGAGGAUCACCCAUGUAGAAGGUAGGAAAUUGGGAGAAGGCUCAAGAGAGAG [salish99-ss2-114] shows apparent KD of MS2 coat protein of 30 nM or higher.
False

Form field: apparent KD of MS2 coat protein at least 30 nM? Entry: AAAAACAUGGUGCAGGAUAUAUUAAUAGUCACAUGAGGAUCACCCAUGUUCAUUUAUAUGAACGAGUAGAAGGGCGAUGAAAAAA [Mat - Same state - Malcolm Mod - D111]
True

Reported apparent KD of MS2 coat protein at or above 30 nM? AUUAUUAUUACGCAGGAUAUCGAGGUUUUUACAUGAGGAUCACCCAUGUUUUUUUUUUUAUAUUACGAGAAGGGCGAUAUUAUUA [salish99-SS2-01]
False

Could you tell me if the measured apparent KD of MS2 coat protein of AUAAUAAACUGUGAGGAUAUCCAUAAUAAAACAUGAGGAUCACCCAUGUGUAGAUAAUAAUAAUGGGAGAAGGCACAUAAUAAUA [Mat - Same state - Mayanna Mod - D102] reaches 30 nM or more?
False

Please indicate if the recorded apparent KD of MS2 coat protein for AAAUAGUGCAUUAAGGAUAUGUCGCAUGACACAUGAGGAUCACCCAUGUGGUAACACAGAGGGUGGCAGAAGGUAGUGUGCAAAC [Mod 3 of Pariah 6 (Round1) by Hyphema] meets or exceeds 30 nM.
True

State whether the measured apparent KD of MS2 coat protein reaches 30 nM, counting equality as reaching it, for GGGAAGAAGAGAGAGGAUAUCCAAAGGAAAACAUGAGGAUCACCCAUGUAAAAGGAAGGAAAUUGGGAGAAGGCUCAAAAGAGGA [salish99-ss2-025]
False

Confirm if apparent KD of MS2 coat protein reported for the sequence AAAAAACAUGAGGAUCACCCAUGUAGAAACAUGGGAGGAUAUACAAAGACGAAAGUCAAAGUAGAAGGCCUAAAGA [Mat - Same State 1 - Mod - D162] is 30 nM or above.
True

Source of measurements: the supplement of paper PMC9170038
